Experimental Target: FPRL-1 (Homo sapiens, UniProt P25090)
Construct: expressed in transfected cells
Sequence (P25090 whole entry): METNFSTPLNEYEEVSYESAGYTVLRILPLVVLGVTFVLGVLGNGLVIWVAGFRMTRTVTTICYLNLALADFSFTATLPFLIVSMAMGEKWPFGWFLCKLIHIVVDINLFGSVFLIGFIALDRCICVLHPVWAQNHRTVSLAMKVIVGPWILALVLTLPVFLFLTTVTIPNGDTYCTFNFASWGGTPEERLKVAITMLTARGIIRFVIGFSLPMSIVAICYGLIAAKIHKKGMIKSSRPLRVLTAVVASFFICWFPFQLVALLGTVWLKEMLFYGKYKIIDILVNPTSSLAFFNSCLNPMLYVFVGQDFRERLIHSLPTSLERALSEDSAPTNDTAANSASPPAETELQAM
Method Notes: Compound-induced calcium activity on FLIPR Tetra in CHO-Ga16 cells stably expressing FPRL1
Assay type: cell-based
Study Conditions: relative efficacy
Readout Label: FPRL-1 Ga16-CHO (Rel. eff.)

Molecule: Cc1cc(Br)ccc1NC(=O)N[C@@H](Cc1ccccc1)C(=O)O [Compound 2]
Obs Value: (1.0)

---

Experimental Target: FPRL-1 (Homo sapiens)
Method Notes: Compound-induced calcium activity on FLIPR Tetra in CHO-Ga16 cells stably expressing FPRL1
Study Conditions: compounds tested at 0.61 to 10,000 nM
Readout Label: pEC50
Bear in mind: pEC50 is minus log10 of a mol/L concentration; give just that figure.

Query :: Which pEC50 is reported for this compound? `CCC(CC)(NC(=O)Nc1ccc(Br)cc1)C(=O)O`
Result :: 7.62

Query :: Which pEC50 is reported for this compound? O=C(Nc1ccc(C(F)(F)F)cc1)NC(Cc1ccccc1)C(=O)O (centres unmarked)
Result :: 7.04

Query :: Which pEC50 is reported for this compound? `CCC[C@H](NC(=O)Nc1ccc(Br)cc1)C(N)=O`
Result :: 6.96

Query :: Which pEC50 is reported for this compound? `CC[C@H](C)[C@H](NC(=O)Nc1ccc(Br)cc1F)C(N)=O`
Result :: 6.62

Query :: Which pEC50 is reported for this compound? `CC(C)C[C@H](NC(=O)Nc1ccc(Br)cc1)C(N)=O`
Result :: 7.32

Query :: Which pEC50 is reported for this compound? `CC(C)C[C@H](NC(=O)Nc1ccc(C(F)(F)F)cc1)C(=O)O`
Result :: 7.54

Query :: Which pEC50 is reported for this compound? O=C(Nc1ccc(Br)cc1F)NC(Cc1ccccn1)C(=O)O (centres unmarked)
Result :: 6.15

Query :: Which pEC50 is reported for this compound? `CC[C@H](C)[C@H](NC(=O)Nc1ccc(Br)cc1F)C(=O)O`
Result :: 8.10

Query :: Which pEC50 is reported for this compound? `CSc1ccc(NC(=O)N[C@@H](Cc2ccccc2)C(=O)O)cc1`
Result :: 7.11

Query :: Which pEC50 is reported for this compound? `Cc1cc(Br)ccc1NC(=O)N[C@@H](Cc1ccccc1)C(=O)O`
Result :: 5.81

Query :: Which pEC50 is reported for this compound? `O=C(Nc1ccc(Br)cc1F)N[C@H](C(=O)O)c1ccccc1`
Result :: 7.06

Query :: Which pEC50 is reported for this compound? CC(C)CC(C)(NC(=O)Nc1ccc(Br)cc1)C(=O)O (centres unmarked)
Result :: 7.80

Query :: Which pEC50 is reported for this compound? `CC(C)C[C@H](NC(=O)Nc1ccc(SC(F)(F)F)cc1)C(=O)O`
Result :: 5.62

Query :: Which pEC50 is reported for this compound? O=C(Nc1ccc(Br)cc1)NC(Cc1ccccn1)C(=O)O (centres unmarked)
Result :: 6.31

Query :: Which pEC50 is reported for this compound? O=C(Nc1ccc(Br)cc1F)NC(Cc1c[nH]c2ccccc12)C(=O)O (centres unmarked)
Result :: 6.92

Query :: Which pEC50 is reported for this compound? CSCCC(NC(=O)Nc1ccc(Br)cc1)C(=O)O (centres unmarked)
Result :: 7.03

Query :: Which pEC50 is reported for this compound? `O=C(Nc1ccc(Cl)cc1Cl)N[C@@H](Cc1ccccc1)C(=O)O`
Result :: 5.94

Query :: Which pEC50 is reported for this compound? `CC(C)C[C@H](NC(=O)Nc1ccc(Br)cc1F)C(N)=O`
Result :: 6.92

Query :: Which pEC50 is reported for this compound? CSc1ccc(NC(=O)NC(Cc2ccccc2)C(=O)O)cc1 (centres unmarked)
Result :: 6.77

Query :: Which pEC50 is reported for this compound? `Cc1cc(Br)cc(C)c1NC(=O)N[C@@H](Cc1ccccc1)C(=O)O`
Result :: 5.62
